MEASURED TARGET: full length human TREX1 (Homo sapiens)
Construct: N-terminally His-Tev tagged full length human TREX1; made in house; host or cells: E. coli
Sequence (Q9NSU2 1-314): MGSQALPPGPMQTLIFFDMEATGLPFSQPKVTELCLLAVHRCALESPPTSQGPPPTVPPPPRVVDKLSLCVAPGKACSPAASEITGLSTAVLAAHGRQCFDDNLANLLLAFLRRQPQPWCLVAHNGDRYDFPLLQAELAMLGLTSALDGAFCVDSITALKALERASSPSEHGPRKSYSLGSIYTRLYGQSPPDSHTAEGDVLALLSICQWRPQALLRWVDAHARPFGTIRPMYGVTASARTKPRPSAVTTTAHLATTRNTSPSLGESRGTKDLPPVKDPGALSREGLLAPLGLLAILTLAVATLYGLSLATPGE
PROCEDURE SUMMARY: hTREX1 Biochemical Assay (fluorescence, dsDNA substrate degradation)
TEST CONDITIONS: biochemical, read-out: hTREX1 IC50
pIC50: −log10 of the molar value.
MEASURED ATTRIBUTE: pIC50

Some solved cases for reference:
>>> assay_result("COCCn1cc(C(c2ccccc2C#N)C(C)c2nc(C(=O)Nc3cnoc3)c(O)c(=O)n2C)c(C)n1 (single isomer, unassigned) [Example 71 D2E2]")
"< 8.00"
>>> assay_result("CC(c1nc(C(=O)Nc2cnoc2)c(O)c(=O)n1C)C(c1cnn(CCN2CCN(C)CC2)c1)c1ccccc1C#N (single isomer, unassigned) [Example 32 D2E2]")
"< 8.00"
>>> assay_result("CCn1ncc(C(c2ccccc2C#N)C(C)c2nc(C(=O)Nc3cnoc3)c(O)c(=O)n2C)c1C (single isomer, unassigned) [Example 68 D2E2]")
"< 8.00"

For every item below, please supply its pIC50.
1. CC(c1nc(C(=O)Nc2cnoc2)c(O)c(=O)n1C)C(c1ccccc1C#N)c1cn(C)nc1F (single isomer, unassigned) [Example 91 D1E1]
2. CC(c1nc(C(=O)Nc2cnoc2)c(O)c(=O)n1C)C(c1cn(C)cn1)c1ccccc1C#N (single isomer, unassigned) [Example 39 D2E2]
3. CC(c1nc(C(=O)Nc2cnoc2)c(O)c(=O)n1C)C(c1ccccc1C#N)c1nnnn1C (single isomer, unassigned) [Example 131 D1E2]

> 9.00
8.00 to 9.00
< 8.00

For every item below, please supply its pIC50.
1. COCCn1cc(C(c2cc(F)ccc2C#N)C(C)c2nc(C(=O)Nc3cnoc3)c(O)c(=O)n2C)c(C)n1 (single isomer, unassigned) [Example 103 D1E2]
2. COCCn1cc(C(c2cc(F)ccc2Cl)C(C)c2nc(C(=O)Nc3cnoc3)c(O)c(=O)n2C)cn1 (single isomer, unassigned) [Example 97 D1E2]
3. Cc1ncc(C(c2ccccc2Cl)C(C)c2nc(C(=O)Nc3cnoc3)c(O)c(=O)n2C)cn1 (single isomer, unassigned) [Example 44 D2E1]
4. CC(c1nc(C(=O)Nc2cnoc2)c(O)c(=O)n1C)C(c1cnn(CC2CC2)c1)c1ccccc1C#N (single isomer, unassigned) [Example 23 D2E2]
5. CC(=O)N(C)c1nn(C)cc1C(c1ccccc1C#N)C(C)c1nc(C(=O)Nc2cnoc2)c(O)c(=O)n1C (single isomer, unassigned) [Example 153 D1E2]
6. Cc1nn(C)cc1C(c1ccccc1C#N)C(c1nc(C(=O)Nc2cnoc2)c(O)c(=O)n1C)C(F)(F)F (single isomer, unassigned) [Example 41 D2E1]

1: > 9.00; 2: 8.00 to 9.00; 3: < 8.00; 4: < 8.00; 5: < 8.00; 6: 8.00 to 9.00

The origin of these recorded values is patent US20240246946A1.
